- protocol text: Pharmacokinetics in female BALB/c nude mice bearing A375 xenografts, 1 day dosing (PK and PD study): plasma, tumor and brain concentrations, AUC
- Format: in vivo
- measurement setup: mouse, plasma, po, 6 mg/kg, 6 mg/kg p.o. QD × 1 day; 36 h; read-out: Mean Concentration in Plasma ± SEM
measurement label: concentration at 36 h (ng/mL)
The reply should contain only the number, in ng/mL.

In: # query: concentration at 36 h of entry CCN(C)S(=O)(=O)Nc1ccc(F)c(Oc2ccc3ncn([C@H]4COC5(CCN(C6CC7(C6)CN(c6cc8c(cc6F)c(N6CCC(=O)NC6=O)nn8C)C7)CC5)C4)c(=O)c3c2)c1C#N
Out: 3.87

###

- protocol text: Pharmacokinetics in female BALB/c nude mice bearing A375 xenografts, 1 day dosing (PK and PD study): plasma, tumor and brain concentrations, AUC
- Type: in vivo
- measurement setup: mouse, plasma, po, 1 mg/kg, 1 mg/kg p.o. TID × 1 day; post 3rd dose; 0.5 h; read-out: Mean Concentration in Plasma ± SEM
measurement label: concentration at 0.5 h (ng/mL)
The reply should contain only the number, in ng/mL.

In: # query: concentration at 0.5 h of entry CCN(C)S(=O)(=O)Nc1ccc(F)c(Oc2ccc3ncn(C4CC5(CCN(C6CC7(C6)CN(c6cc8c(cc6F)c(N6CCC(=O)NC6=O)nn8C)C7)CC5)C4)c(=O)c3c2)c1C#N (stereo not shown)
Out: 694

###

Parameter concentration at 0.5 h: see the listing below.
- protocol text: Pharmacokinetics after 21 days dosing in the efficacy study (plasma, tumor and brain concentrations; plasma AUC at steady state), Example 14
- Format: in vivo, female BALB/c nude mice
- measurement setup: mouse, plasma, po; 1.5 mg/kg p.o. BID x 21 days; 0.5 h; mean ± SEM
Kindly write the number and append the unit.

In: # query: concentration at 0.5 h of entry CCN(C)S(=O)(=O)Nc1ccc(F)c(Oc2ccc3ncn([C@H]4COC5(CCN(C6CC7(C6)CN(c6cc8c(cc6F)c(N6CCC(=O)NC6=O)nn8C)C7)CC5)C4)c(=O)c3c2)c1C#N
Out: 1910 ng/mL

In: Request: CCN(C)S(=O)(=O)Nc1ccc(F)c(Oc2ccc3ncn(C4CC5(CCN(C6CC7(C6)CN(c6cc8c(cc6F)c(N6CCC(=O)NC6=O)nn8C)C7)CC5)C4)c(=O)c3c2)c1C#N (centres unmarked)
Out: 1360 ng/mL

###

- protocol text: Example 7 pharmacokinetics assay for PKPD study (plasma, tumor, liver)
- Assay type: in vivo, BALB/c nude mice
- measurement setup: mouse, plasma, po; 100 mg/kg, p.o., single dose; 1 h; read-out: Concentration in Plasma (mean ± SEM)
measurement label: concentration at 1 h (ng/mL)
The reply should contain only the number, in ng/mL.

In: # query: concentration at 1 h of entry CC(C)(C)c1nc(-c2cccc(NS(=O)(=O)c3c(F)cccc3F)c2F)c(-c2ccnc(N)n2)s1 [Dabrafenib, dabrafenib, reference compound]
Out: 7370

###

- protocol text: Example 6 pharmacokinetics assay for PKPD study (plasma, tumor, liver)
- Format: in vivo, BALB/c nude mice
- measurement setup: mouse, tumor, po; 35 mg/kg, single dose; 6 h; read-out: Concentration in Tumor (mean ± SEM)
measurement label: concentration at 6 h (ng/g)
The reply should contain only the number, in ng/g.

In: # query: concentration at 6 h of entry COC(=O)N[C@@H](C)CNc1nccc(-c2cn(C(C)C)nc2-c2cc(Cl)cc(NS(C)(=O)=O)c2F)n1 [Encorafenib, encorafenib, reference compound]
Out: 135

###

- target under test: BRAF V600E (Homo sapiens, UniProt P15056+Q96SW2, V600E)
- Construct: knock-in of the HiBiT tag to the endogenous BRAF V600E locus; host or cells: A375.10 (A375 clonal line, CRISPR HiBiT knock-in at the endogenous BRAF V600E locus)
- Sequence (P15056 whole entry V600E): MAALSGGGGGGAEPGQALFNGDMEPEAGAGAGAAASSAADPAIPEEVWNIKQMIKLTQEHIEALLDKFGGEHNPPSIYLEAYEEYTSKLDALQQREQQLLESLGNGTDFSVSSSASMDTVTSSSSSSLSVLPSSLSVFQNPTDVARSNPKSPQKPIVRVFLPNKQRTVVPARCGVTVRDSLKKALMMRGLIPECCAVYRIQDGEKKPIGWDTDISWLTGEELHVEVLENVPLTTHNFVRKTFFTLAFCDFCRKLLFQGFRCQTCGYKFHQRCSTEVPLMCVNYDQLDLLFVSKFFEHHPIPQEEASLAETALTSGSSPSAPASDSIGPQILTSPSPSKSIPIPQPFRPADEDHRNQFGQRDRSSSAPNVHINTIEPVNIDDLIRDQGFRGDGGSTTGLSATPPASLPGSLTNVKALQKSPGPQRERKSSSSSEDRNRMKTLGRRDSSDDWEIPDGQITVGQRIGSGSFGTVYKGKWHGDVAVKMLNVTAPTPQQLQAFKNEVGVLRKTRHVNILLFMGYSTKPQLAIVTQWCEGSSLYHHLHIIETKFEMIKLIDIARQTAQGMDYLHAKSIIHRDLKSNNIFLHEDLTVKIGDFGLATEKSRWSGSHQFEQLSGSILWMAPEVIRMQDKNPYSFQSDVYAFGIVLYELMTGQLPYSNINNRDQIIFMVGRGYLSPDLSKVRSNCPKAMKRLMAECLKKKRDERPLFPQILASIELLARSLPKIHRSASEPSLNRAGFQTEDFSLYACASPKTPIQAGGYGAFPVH
- Sequence (Q96SW2 whole entry): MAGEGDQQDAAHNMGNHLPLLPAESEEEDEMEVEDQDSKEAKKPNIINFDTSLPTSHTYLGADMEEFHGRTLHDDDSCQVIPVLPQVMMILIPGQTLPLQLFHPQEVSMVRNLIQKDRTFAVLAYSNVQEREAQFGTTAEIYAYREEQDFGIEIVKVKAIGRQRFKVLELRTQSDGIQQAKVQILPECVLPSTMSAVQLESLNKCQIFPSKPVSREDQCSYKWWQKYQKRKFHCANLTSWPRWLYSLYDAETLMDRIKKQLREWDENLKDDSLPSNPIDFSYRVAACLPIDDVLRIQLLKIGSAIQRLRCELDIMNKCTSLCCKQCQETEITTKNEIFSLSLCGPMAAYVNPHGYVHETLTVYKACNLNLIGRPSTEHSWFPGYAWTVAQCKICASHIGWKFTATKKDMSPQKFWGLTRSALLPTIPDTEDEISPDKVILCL
- Sequence (Q16531 whole entry partner): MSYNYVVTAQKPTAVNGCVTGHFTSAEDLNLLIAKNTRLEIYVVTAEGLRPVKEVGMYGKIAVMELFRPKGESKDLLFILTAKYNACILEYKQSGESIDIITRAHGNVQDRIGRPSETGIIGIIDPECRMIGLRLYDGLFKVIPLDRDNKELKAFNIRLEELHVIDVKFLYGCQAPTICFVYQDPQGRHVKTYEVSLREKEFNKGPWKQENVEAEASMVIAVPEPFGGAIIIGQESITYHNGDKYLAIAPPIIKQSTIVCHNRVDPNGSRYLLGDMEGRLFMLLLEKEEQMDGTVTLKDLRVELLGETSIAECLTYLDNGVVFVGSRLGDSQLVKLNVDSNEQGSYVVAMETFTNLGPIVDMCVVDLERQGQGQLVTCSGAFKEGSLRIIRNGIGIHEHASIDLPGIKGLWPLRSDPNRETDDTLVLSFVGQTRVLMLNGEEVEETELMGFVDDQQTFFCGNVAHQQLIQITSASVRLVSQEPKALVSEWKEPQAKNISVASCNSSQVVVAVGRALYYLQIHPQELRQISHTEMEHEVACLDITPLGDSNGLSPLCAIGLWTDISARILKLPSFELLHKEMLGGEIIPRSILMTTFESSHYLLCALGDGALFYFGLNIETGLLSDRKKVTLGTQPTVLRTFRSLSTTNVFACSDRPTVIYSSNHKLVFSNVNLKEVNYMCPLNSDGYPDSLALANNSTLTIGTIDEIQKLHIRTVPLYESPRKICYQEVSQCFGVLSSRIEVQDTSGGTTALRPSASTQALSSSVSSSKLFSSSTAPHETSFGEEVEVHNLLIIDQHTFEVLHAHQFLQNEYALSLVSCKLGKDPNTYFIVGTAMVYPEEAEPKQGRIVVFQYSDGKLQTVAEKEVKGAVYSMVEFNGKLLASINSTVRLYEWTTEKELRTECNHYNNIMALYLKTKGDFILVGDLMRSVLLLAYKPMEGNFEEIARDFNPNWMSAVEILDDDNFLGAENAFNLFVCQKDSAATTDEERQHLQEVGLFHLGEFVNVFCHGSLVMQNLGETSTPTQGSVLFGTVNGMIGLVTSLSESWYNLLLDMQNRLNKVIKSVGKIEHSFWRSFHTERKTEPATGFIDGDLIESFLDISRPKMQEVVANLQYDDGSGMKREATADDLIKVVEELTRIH
- protocol text: BRAF V600E HiBiT Degradation Assay
- Type: cell-based
- measurement setup: A375.10 cells, HiBiT, BRAF V600E, 24 hours; read-out: HiBiT-Degradation A375.10 BRAF 24 hours IP
Parameter DC50: see the listing below.

Worked examples, 5 molecules total:
INSERT INTO assay_data (molecule, result_value) VALUES
  ('CCN(C)S(=O)(=O)Nc1ccc(F)c(Oc2ccc3ncn([C@H]4COC5(CCN(CC6(O)CCN(c7cc8c(cc7F)c(N7CCC(=O)NC7=O)nn8C)CC6)CC5)C4)c(=O)c3c2)c1C#N [Compound 230]', '< 1000 nM'),
  ('CCN(C)S(=O)(=O)Nc1ccc(F)c(Oc2ccc3ncc([C@@H]4COC5(CCN(C6CCC(c7cc8c(cc7F)c(N7CCC(=O)NC7=O)nn8C)CC6)CC5)C4)nc3c2)c1C#N (single isomer, unassigned) [Compound 54]', '< 1000 nM'),
  ('CCN(C)S(=O)(=O)Nc1ccc(F)c(Oc2ccc3ncn(C4CC5(C4)CN(CC4CN(c6cc7c(cc6F)c(N6CCC(=O)NC6=O)nn7C)C4)C5)c(=O)c3c2)c1C#N [Compound 313]', '< 1000 nM'),
  ('CCN(C)S(=O)(=O)Nc1ccc(F)c(Oc2ccc3ncn([C@H]4COC5(C4)CN(C4CCN(c6cc7c(cc6F)c(N6CCC(=O)NC6=O)nn7C)CC4)C5)c(=O)c3c2)c1C#N [Compound 309]', '< 1000 nM'),
  ('CCN(C)S(=O)(=O)Nc1ccc(F)c(Oc2ccc3ncn(C4CC5(CCN(C6CCN(c7cc8c(cc7F)c(N7CCC(=O)NC7=O)nn8C)CC6)CC5)C4)c(=O)c3c2)c1C#N [Compound 156]', '< 1000 nM');

In: # query: DC50 of entry CCN(C)S(=O)(=O)Nc1ccc(F)c(Oc2ccc3ncn([C@@H]4COC5(C4)CN(C4CCC(c6cc7c(cc6F)c(N6CCC(=O)NC6=O)nn7C)CC4)C5)c(=O)c3c2)c1C#N (single isomer, unassigned) [Compound 238]
Out: < 1000 nM

In: Request: CCN(C)S(=O)(=O)Nc1ccc(F)c(Oc2ccc3ncc(OC4CCN(C5CCC(c6ccc(NC7CCC(=O)NC7=O)cc6F)CC5)CC4)nc3c2)c1C#N (single isomer, unassigned) [Compound 110]
Out: < 1000 nM

In: Request: CCN(C)S(=O)(=O)Nc1ccc(F)c(Oc2ccc3ncn(C4CC5(C4)CN(C4CCC(c6cc7c(cc6F)c(N6CCC(=O)NC6=O)nn7C)CC4F)C5)c(=O)c3c2)c1C#N (single isomer, unassigned) [Compound 299]
Out: < 1000 nM

In: Request: CCN(C)S(=O)(=O)Nc1ccc(F)c(Oc2ccc3ncn([C@@H]4C[C@@H]5CN(C6CCC(c7ccc(NC8CCC(=O)NC8=O)cc7F)CC6)C[C@@H]5C4)c(=O)c3c2)c1C#N (single isomer, unassigned) [Compound 21]
Out: < 1000 nM

In: Request: CCN(C)S(=O)(=O)Nc1ccc(F)c(Oc2ccc3ncn([C@H]4COC5(CCN(C6CC(c7ccc(NC8CCC(=O)NC8=O)cc7F)C6)CC5)C4)c(=O)c3c2)c1C#N (single isomer, unassigned) [Compound 63]
Out: < 1000 nM

###

- protocol text: Pharmacokinetics in female BALB/c nude mice bearing A375 xenografts, 1 day dosing (PK and PD study): plasma, tumor and brain concentrations, AUC
- Type: in vivo
- measurement setup: mouse, brain, po, 6 mg/kg, 6 mg/kg p.o. QD × 1 day; 4 h; read-out: Mean Concentration in Brain ± SEM
measurement label: concentration at 4 h (ng/g)
The reply should contain only the number, in ng/g.

In: # query: concentration at 4 h of entry CCN(C)S(=O)(=O)Nc1ccc(F)c(Oc2ccc3ncn([C@H]4COC5(CCN(C6CC7(C6)CN(c6cc8c(cc6F)c(N6CCC(=O)NC6=O)nn8C)C7)CC5)C4)c(=O)c3c2)c1C#N [Compound 26]
Out: 79.2

###

- target under test: BRAF V600E (Homo sapiens, UniProt P15056+Q96SW2, V600E)
- Construct: knock-in of the HiBiT tag to the endogenous BRAF V600E locus; host or cells: A375.10 (A375 clonal line, CRISPR HiBiT knock-in at the endogenous BRAF V600E locus)
- protocol text: BRAF V600E HiBiT Degradation Assay
- Assay type: cell-based
measurement label: HiBiT-Degradation A375.10 BRAF 2 hours Emax

INSERT INTO assay_data (molecule, target_under_test, result_value) VALUES
  ('CCN(C)S(=O)(=O)Nc1ccc(F)c(Oc2ccc3ncc(OC4CC5(CCN(C6CCC(c7cc8c(cc7F)c(N7CCC(=O)NC7=O)nn8C)CC6)CC5)C4)nc3c2)c1C#N (single isomer, unassigned) [Compound 219]', 'BRAF V600E (Homo sapiens, UniProt P15056+Q96SW2, V600E)', '** (<90% and >50%)'),
  ('CN(CCO)S(=O)(=O)Nc1ccc(F)c(Oc2ccc3ncn(C4CC5(CCN(C6CCC(c7cc8c(cc7F)c(N7CCC(=O)NC7=O)nn8C)CC6F)CC5)C4)c(=O)c3c2)c1C#N (single isomer, unassigned) [Compound 146]', 'BRAF V600E (Homo sapiens, UniProt P15056+Q96SW2, V600E)', '** (<90% and >50%)'),
  ('CCN(C)S(=O)(=O)Nc1ccc(F)c(Oc2ccc3ncn([C@@H]4CCC5(CCN(C6CCC(c7cc8c(cc7F)c(N7CCC(=O)NC7=O)nn8C)CC6)CC5)C4)c(=O)c3c2)c1C#N (single isomer, unassigned) [Compound 32]', 'BRAF V600E (Homo sapiens, UniProt P15056+Q96SW2, V600E)', '** (<90% and >50%)'),
  ('CCN(C)S(=O)(=O)Nc1ccc(F)c(Oc2ccc3ncn(C4CC5(C4)CN(C4CCC(c6cc7c(cc6F)c(N6CCC(=O)NC6=O)nn7C)CC4)C5)c(=O)c3c2)c1C#N (single isomer, unassigned) [Compound 204]', 'BRAF V600E (Homo sapiens, UniProt P15056+Q96SW2, V600E)', '*** (<=50%)'),
  ('CCN(C)S(=O)(=O)Nc1ccc(F)c(Oc2ccc3ncn(C4CC5(CCN(C6CCC(c7cc8c(cc7F)c(N7CCC(=O)NC7=O)nn8C)CC6)CC5)C4)c(=O)c3c2)c1F (single isomer, unassigned) [Compound 179]', 'BRAF V600E (Homo sapiens, UniProt P15056+Q96SW2, V600E)', '** (<90% and >50%)');

Now for the molecule whose HiBiT-Degradation A375.10 BRAF 2 hours Emax we want.
In: # query: HiBiT-Degradation A375.10 BRAF 2 hours Emax of entry CCN(C)S(=O)(=O)Nc1ccc(F)c(Oc2ccc3ncn(C4CC5(CCN(C6CCC(c7cc8c(cc7F)c(N7CCC(=O)NC7=O)nn8C)CC6F)CC5)C4)c(=O)c3c2)c1C#N (single isomer, unassigned) [Compound 86]
Out: *** (<=50%)
